Test system: HOP-92 NSCLC
Assay: NCI tumour cell line growth inhibition, 48 h
QUANTITY: TGI

>>> result("C[C@H](N[C@H]1CCC[C@]1(O)C#Cc1ccc2c(c1)OCO2)c1ccccc1")
"> 25 µM"
>>> result("CS/C(=N\\S(=O)(=O)c1cc(C)c(Cl)cc1Cl)NNc1cnc2ccccc2n1")
"> 100 µM"
>>> result("C/C(=N\\Nc1nc2ccccc2s1)c1cnccn1")
"> 28.3 µM"
>>> result("CCOC(=O)c1c[nH]cc1-c1cn(S(=O)(=O)c2ccccc2)cc1C")
"> 100 µM"
>>> result("Cc1coc2c1C(=O)C(=O)c1c-2ccc2c1CCCC2(C)C")
"> 100 µM"
>>> result("C=C(Br)C(C)(Br)CCC(Br)C(C)(C)Br (stereo unspecified)")
"40.6 µM"
>>> result("CSC1=Nc2c(c(C)c(C)n2COC(CO)CO)C2=NC(=O)CC(C)N12 (stereo unspecified)")
"> 100 µM"
>>> result("CC1(C)CCCCCCC2CC2CCCCCC(C)(C)C1=O (stereo unspecified)")
"> 100 µM"
>>> result("Cc1nn(-c2ccccc2)c2nc3c(nc12)C1=NCCN1C(c1ccc(Cl)cc1)N3 (stereo unspecified)")
"9.69 µM"
>>> result("CCOC(=O)N/N=C(\\Cc1ccc([N+](=O)[O-])cc1)OCC")
"> 100 µM"
>>> result("COC(=O)C(Cc1ccccc1)NC(=O)Cn1ccnc1[N+](=O)[O-] (stereo unspecified)")
"> 100 µM"

* * *

System: 786-0 renal
Experiment: NCI tumour cell line growth inhibition, 48 h; in the data active = GI50 below about 0.43 µM; inactive = the rest
Labels: active, inactive

>>> qualitative_label("CS(=O)(=O)c1ccc(Oc2cc(F)cc(C#N)c2)c2c1[C@H](O)C(F)(F)C2")
"inactive"
>>> qualitative_label("OCC1OC(n2cnc3c2NC=NC[C@H]3O)CC1O (stereo partly drawn)")
"inactive"
>>> qualitative_label("C=CC[C@@H]1/C=C(\\C)C[C@H](C)C[C@H](OC)[C@H]2O[C@@](O)(C(=O)C(=O)N3CCCC[C@H]3C(=O)O[C@H](/C(C)=C/C3CC[C@@H](O)[C@H](OC)C3)[C@H](C)[C@@H](O)CC1=O)[C@H](C)C[C@@H]2OC (stereo partly drawn)")
"inactive"
>>> qualitative_label("Cc1[nH]nc2ccc3nc(-c4ccc5[nH]ncc5c4)c4c(c3c12)CCCC4")
"inactive"
>>> qualitative_label("S=C(c1ccc2c(c1)OCO2)N1CCN(c2cccc(Cl)c2)CC1")
"inactive"
>>> qualitative_label("O=C1CCC(N2Cc3c(C#CCCCNC(=O)c4cc5c(o4)C(=O)c4ccccc4C5=O)cccc3C2=O)C(=O)N1 (stereo not drawn)")
"inactive"
>>> qualitative_label("CCN(CC)CCCC(Cc1ccccc1)Nc1c2ccc(Cl)cc2nc2ccc(OC)cc12 (stereo not drawn)")
"inactive"
>>> qualitative_label("COc1ccc(-c2nc(N3CCOCC3)c3sc(CN(C)c4ncc(C(=O)NO)cn4)cc3n2)cn1")
"active"

* * *

Test system: SK-MEL-5 melanoma
Assay: NCI tumour cell line growth inhibition, 48 h
QUANTITY: TGI (µM)

>>> result_number("O=C(Nc1ccc(OCc2nnc(-c3ccccc3)o2)c(F)c1)Nc1ccc(Cl)c(C(F)(F)F)c1")
3.59
>>> result_number("Cc1ccc(C(=O)C#Cc2c[nH]c(=O)[nH]c2=O)cc1")
26.5
>>> result_number("C[C@]12CC[C@H]3[C@@H](CCC4=CC(=O)CC[C@@]43C)[C@@H]1CC[C@@H]2C(=O)Nc1ccc([N+](=O)[O-])c(C(F)(F)F)c1")
32.5
>>> result_number("Cc1ccc2[nH]c3c(c2c1)CCC/C3=N/N=C(N)N")
3.4
>>> result_number("O=[N+]([O-])C(=C(N1CCCCC1)N1CCCCC1)/C(Cl)=C(\\Cl)[N+](=O)[O-]")
11

* * *

System: SW-620 colon
Assay: NCI tumour cell line growth inhibition, 48 h
Reported TGI values are given for each entry in this list.
QUANTITY: TGI (µM)

>>> result_number("O=C(CN1C(=O)S/C(=C\\C(Cl)=C\\c2ccccc2)C1=O)NCCc1ccc(O)cc1")
4.22
>>> result_number("CCOC(=O)NC(=O)c1cn(CCCOC(=O)NCCCCCCNC(=O)OCCCn2cc(C(=O)NC(=O)OCC)c(=O)[nH]c2=O)c(=O)[nH]c1=O")
93.6
>>> result_number("CCCCCCCCCCCCCCCCCC(=O)OCC(C[As](=O)(O)O)OC(=O)CCCCCCCCCCCCCCCCC (stereo not given)")
33.8
>>> result_number("CN=C(N)/N=C(\\N)Nc1cc2ccccc2c2ccccc12")
34

* * *

Test system: KM12 colon
Assay: NCI tumour cell line growth inhibition, 48 h
QUANTITY: TGI

>>> result("CCOC(=O)c1[nH]cc(C)c1-c1c[nH]c2ccccc12")
"> 100 µM"
>>> result("COc1ccc2cc(Cn3cc[n+](Cc4ccc5ccccc5c4)c3)ccc2c1")
"3.43 µM"
>>> result("CCCc1nc(NC#N)nc(C(=O)NC23CC4CC(CC(C4)C2)C3)c1C")
"> 100 µM"
>>> result("O=P(c1ccccc1)(c1ccccc1)c1ccc2c(c1)OCCOCCOCCOCCO2")
"> 100 µM"
>>> result("C/C=N\\n1c(C)c(C#N)c(C#N)c1N")
"> 100 µM"
>>> result("CCCC1=C(C(=O)OCC)C(c2ccccc2OC)C(C#N)=C(N)O1 (stereo not drawn)")
"> 100 µM"
>>> result("CCOC(=O)c1c(Cl)c2c(n1Cc1cccc(OC)c1)-c1oncc1CC2")
"77.9 µM"
>>> result("O=C(NCCNc1nccc(-c2c(-c3cccc(O)c3)nc3sccn23)n1)Nc1cccc(C(F)(F)F)c1")
"6.98 µM"
>>> result("COC1=CC(c2ccc[nH]2)=N/C1=C\\c1[nH]c(C)c(C(C)=O)c1C")
"> 100 µM"
>>> result("CN(C)CCNC1=CC(=O)c2nc3ccccc3c3ccnc1c23")
"17.4 µM"
>>> result("CNC(=O)C1CCCN1C(=O)C(Cc1cnc[nH]1)NC(=O)C1CCC(=O)N1 (stereo not drawn)")
"> 100 µM"
>>> result("Brc1ccccc1C=NC12CC3CC(CC(C3)C1)C2")
"> 100 µM"
>>> result("Cc1c(C(=O)/C=C/c2c(Cl)cccc2Cl)c(=O)n(-c2ccccc2)n1C")
"44.8 µM"
>>> result("CCCNC(=O)Cn1c(C)cc2ccccc21")
"> 100 µM"
>>> result("C[C@]12CC[C@H]3[C@@H](CCC4=CC(=O)CC[C@@]43C)[C@@H]1CC[C@@H]2C(=O)Nc1ccc([N+](=O)[O-])c(C(F)(F)F)c1")
"36.4 µM"
>>> result("CC(=O)C1=C(C)N2C(=NC3=C(CCc4ccccc43)C2c2cccc(Br)c2)S1 (stereo not drawn)")
"> 100 µM"
>>> result("Cc1cn([C@H]2C[C@@H]3[C@@H](COC(CCl)N3O)O2)c(=O)[nH]c1=O (stereo partly drawn)")
"> 100 µM"
>>> result("OCCCc1cc(O)c2c(c1)C(CO)C(c1ccc(O)c(O)c1)O2 (stereo not drawn)")
"> 100 µM"
>>> result("O=[N+]([O-])c1cc(-c2nnc(C34CC5CC(CC(C5)C3)C4)o2)cc([N+](=O)[O-])c1")
"> 100 µM"
>>> result("CC(=O)OC1Oc2cc(C)c(C)cc2-c2oc(=O)c(-c3ccc(F)cc3)cc21 (stereo not drawn)")
"22.4 µM"
>>> result("C=C(Br)C(C)(Br)CCC(Br)C(C)(C)Br (stereo not drawn)")
"> 100 µM"
>>> result("CSc1nc(C)c(Br)c(=O)n1C1OC(COC(C)=O)C(OC(C)=O)C(OC(C)=O)C1OC(C)=O (stereo not drawn)")
"> 100 µM"
>>> result("COc1cccc(Cn2c(-c3nonc3NC(C)=O)nc3ccccc32)c1")
"> 100 µM"

* * *

Reported GI50 values are given for each entry in this list.
System: EKVX NSCLC
Test: NCI tumour cell line growth inhibition, 48 h
QUANTITY: GI50

>>> result("O=C1CC[C@H](c2ccc(O)c3c2C(=O)[C@@H]2O[C@@H]2C3=O)c2cccc(O)c21")
"13.1 µM"
>>> result("CCOC(=O)c1c(Cl)c2c(n1Cc1cccc(OC)c1)-c1oncc1CC2")
"3.05 µM"
>>> result("O=C(NCCNc1nccc(-c2c(-c3ccc(F)cc3)nc3sccn23)n1)c1ccccc1")
"7.51 µM"
>>> result("Cc1[nH]nc2ccc3nc(-c4ccc5[nH]ncc5c4)c4c(c3c12)CCCC4")
"2.95 µM"
>>> result("Cc1ccc(-c2nc(N)c(C#N)c3c2CCOc2c-3ccc3ccccc23)cc1")
"3.12 µM"
>>> result("N#Cc1c(N)nc(NCc2ccccc2)c(C#N)c1-c1ccccc1Cl")
"24.4 µM"
>>> result("C=C(C)[C@@H]1CC[C@]2(C(=O)O)CC[C@]3(C)[C@H](CC[C@@H]4[C@@]5(C)C/C(=C/c6ccc(OC)cc6)C(=O)C(C)(C)[C@@H]5CC[C@]43C)[C@@H]12")
"2.36 µM"
>>> result("CS(=O)(=O)c1ccc(Oc2cc(F)cc(C#N)c2)c2c1[C@H](O)C(F)(F)C2")
"> 100 µM"

meta.source: PubChem BioAssay (NCI)
